# tested system: human orexin-1 receptor (Homo sapiens, UniProt O43613)
# Sequence (O43613 whole entry): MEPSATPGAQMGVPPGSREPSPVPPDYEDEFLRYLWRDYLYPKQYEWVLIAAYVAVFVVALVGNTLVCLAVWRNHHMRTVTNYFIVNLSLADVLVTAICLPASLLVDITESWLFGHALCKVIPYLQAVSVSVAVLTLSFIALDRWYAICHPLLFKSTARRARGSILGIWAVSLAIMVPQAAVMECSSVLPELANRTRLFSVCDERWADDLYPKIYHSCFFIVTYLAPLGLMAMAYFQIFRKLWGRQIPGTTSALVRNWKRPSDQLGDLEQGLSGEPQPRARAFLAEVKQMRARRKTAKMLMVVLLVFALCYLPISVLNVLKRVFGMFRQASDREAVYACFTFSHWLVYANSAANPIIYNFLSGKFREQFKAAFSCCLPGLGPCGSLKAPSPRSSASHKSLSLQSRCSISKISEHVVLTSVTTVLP
# test summary: FLIPR intracellular calcium assay, orexin receptor antagonistic activity (OX1)
# condition parameters: CHO cells expressing human orexin-1 receptor; 3 nM orexin-A; normalized to on-plate reference; *n = geometric mean from n values
IC50 values for the compounds below.
Output spec: scalar in nM, unitless text.

Example results:
| compound | units | IC50 |
| --- | --- | --- |
| CCOc1ccc(CN2C(=O)CSC2c2c(OC)ccc3c2OCO3)cc1 (stereo not shown) | nM | 885 |
| COc1cccc(OC)c1C1SCC(=O)N1Cc1cccc(OC(F)(F)F)c1 (stereo not shown) | nM | 355 |
| COc1cccc(OC)c1C1N(Cc2ccc(OC(F)(F)F)cc2)C(=O)CS1(=O)=O (stereo not shown) | nM | 166 |

Task: What does the data say about its IC50? Entry: COc1cccc(OC)c1C1SCC(=O)N1Cc1ccc(Oc2ncccc2C)cc1 (stereo not shown)
Result: 1220

Task: What does the data say about its IC50? Entry: COc1cccc(OC)c1C1SCC(=O)N1Cc1ccc(SC(F)(F)F)cc1 (stereo not shown)
Result: 440
